Reference for the values: paper PMC5540273

- System: CAMKK1;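 further: KINOMEscan kinase panel screen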
- conditionInfo: concentration: 1 μM, replicates: in singlicate; n = 1
Sorting guide: entries reporting %Inh beneath 3% go in the Y pile, the rest go in the N pile.

compound: Fc1ccc(-c2ncn(C3CCNCC3)c2-c2ccnc(Oc3ccc(-c4ccccc4)cc3)n2)cc1 [SB-245391]
group: N
--
compound: CN1CCN(CCCNc2nccc(-c3c(-c4ccc(F)cc4)nn4cc(C(F)(F)F)ccc34)n2)CC1 [GW621581]
group: Y
--
compound: O=C(Nc1cccc(-c2nn3ncccc3c2-c2ccnc(Nc3ccccc3)n2)c1)c1c(F)cccc1F [GSK198271]
group: Y
--
compound: Cc1cccc(NC(=O)Nc2ccc(Oc3ncnc4ccn(C)c34)cc2)c1
group: Y
--
compound: Nc1ncc(-c2cccnc2)c2scc(-c3ccc4c(c3)CCN4C(=O)Cc3ccccc3)c12 [GSK683281]
group: N
--
compound: Oc1cc(Nc2ccnc3cc(I)ccc23)ccc1F [GW552771]
group: N
--
compound: COc1ccc(Nc2nccc(NCCNC(=O)c3cc4ccccc4s3)n2)cc1 [GSK1379896]
group: Y
--
compound: Cc1cccc(Nc2nc(N[C@H]3CCNC3)ncc2C(N)=O)c1.Cl [GSK2197149]
group: Y
--
compound: Nc1n[nH]c2cnc(-c3ccccc3)cc12 [SB-642124]
group: Y
--
compound: COc1cc(Nc2nccc(-c3c(-c4cccc(NC(=O)c5c(F)cccc5F)c4)nn4ccccc34)n2)cc(OC)c1OC [GSK323521]
group: N
--
compound: CCCCc1nn2ncccc2c1-c1ccnc(Nc2ccc(N3CCN(C)CC3)cc2)n1 [GW684941]
group: Y
--
compound: NCCCC(NC(=O)c1cc(Br)c(-c2ccnc3[nH]ccc23)s1)c1ccccc1.O=C(O)C(F)(F)F.O=C(O)C(F)(F)F (stereo not drawn) [GSK1287544]
group: N
--
compound: CN1CCN(Cc2cccc(-c3ccc4c(Nc5ccc(Oc6ccccc6)cc5)ccnc4c3)c2)CC1 [GW578342]
group: Y
--
compound: Nc1ncc(-c2ccc3nccc(-c4ccncc4)c3c2)cc1S(=O)(=O)N1CCOCC1 [GSK1627798]
group: N
--
compound: C[C@@H]1CC[C@@H](C(=O)Nc2ccccc2)CN1c1cc(-c2ccc3c(N)n[nH]c3c2)nc(N)n1 [GSK2286062]
group: Y
--
compound: CC(C)(C)c1ccc2nccc(Nc3cccc(O)c3)c2c1 [GW856795]
group: Y
--
compound: CCc1ccc(-c2ccc3c(c2)-c2c(cnn2C)S(=O)(=O)N3C)cc1
group: N
--
compound: COc1cc(Nc2ncc3c(C)nc(-c4cc5ccccc5[nH]4)n3n2)cc(OC)c1OC [GW869516]
group: N
--
compound: O=C(O)C(F)(F)F.O=C(O)C(F)(F)F.O=c1[nH]ccc2nc(N[C@@H]3CCCNC3)nc(Nc3ccc(S(=O)(=O)N4CCOCC4)cc3)c12 [GSK2177277]
group: N
--
compound: COc1cccc(C2=C(Nc3ccc(Cl)c(C(=O)O)c3)C(=O)NC2=O)c1 [SB-390769]
group: Y
